Values from patent US20260200849A1

The following molecules are listed with their measured IL-6 at 24 h values.
System: IL-6
method notes: In vivo tolerability by IV: serum IL-6 by Luminex
Parameters: species or system C57BL/6J mice
condition set: Formulation No. 001, RNA No. 331, male C57BL/6J mice, 1.0 mg*kg/1 intravenous, 24 hours post injection
The answer is to be given in pg/mL; state only the numeric part.

Lookup: Please supply the value of reported IL-6 at 24 h for the item CCCCCCCC/C=C\CCCCCCCC(=O)NC(COC(=O)NCCN1CCCCC1)C(=O)OCCCCCC(=O)OCC(CCCCCCCC)CCCCCCCCCC (stereo not shown)
Found: 6.86

Lookup: Item CCCCC/C=C\C/C=C\CCCCCCCCOC(=O)NC(COC(=O)NCCN1CCCCCC1)C(=O)OCCCCCCCCOC(=O)C(CCCCCC)CCCCCCCC (stereo not shown) : provide IL-6 at 24 h
Found: 6.69

Lookup: Supply reported IL-6 at 24 h belonging to this molecule: CCCCC/C=C\C/C=C\CCCCCCCCOC(=O)NC(COC(=O)NCCN1CCCCCC1)C(=O)OCCCCCCCC(=O)OC(CCCCCCCC)CCCCCCCC (stereo not shown)
Found: 3.13

Lookup: Return value of IL-6 at 24 h for input CCCCCCCC/C=C\CCCCCCCC(=O)NC(COC(=O)NCCN1CCCCC1)C(=O)OCCCCCCCC(=O)OC(CCCCCCCC)CCCCCCCC (stereo not shown) , no commentary.
Found: 3.03

###

System: C57BL/6J mice
method notes: In vivo expression by IM, luciferase RNA-LNPs, whole-body/injection site muscle/organ luminescence
condition set: IM 1.0 mg/kg, 24 h post injection, male C57BL/6J mice N=3, Formulation 001, RNA 331
# Heart (p/s) values compiled below
Field: numeric (p/s). Do not append units.

The examples below pair each entry with its known result.
| compound | measured property | number |
| --- | --- | --- |
| CCCCCCCC/C=C\CCCCCCCC(=O)NC(COC(=O)NCCN1CCCCC1)C(=O)OCCCCCCCCOC(=O)C(CCCCCC)CCCCCCCC (stereo not shown) [Lipid 700] | Heart (p/s) | 1.79E+05 |
| CCCCC/C=C\C/C=C\CCCCCCCC(=O)NC(COC(=O)NCCN1CCCCC1)C(=O)OCCCCCC(=O)OCC(CCCCCCCC)CCCCCCCCCC (stereo not shown) [Lipid 728] | Heart (p/s) | 4.42E+05 |

Lookup: Specify Heart (p/s) for CCCCCCCC/C=C\CCCCCCCC(=O)NC(COC(=O)NCCN1CCCCCC1)C(=O)OCCCCCCCCOC(=O)C(CCCCCC)CCCCCCCC (stereo not shown) [Lipid 701] , system C57BL/6J mice.
Found: 9.37E+05

Lookup: Jot down Heart (p/s) (C57BL/6J mice) of CCCCC/C=C\C/C=C\CCCCCCCC(=O)NC(COC(=O)NCCN1CCCCC1)C(=O)OCCCCCCCC(=O)OC(CCCCCCCC)CCCCCCCC (stereo not shown) [Lipid 549] .
Found: 8.09E+05

###

Tested on: MCP-1
method notes: In vivo tolerability by IM: serum MCP-1 by Luminex
condition set: IM 1.0 mg/kg, 2 h, male C57BL/6J mice N=3, Formulation 001, RNA 331
measured property: MCP-1 at 2 h (pg/mL)
// return numeric value only (unit: pg/mL, not printed)

Recorded results for 3 compounds are shown here.
| compound | measured property | number |
| --- | --- | --- |
| CCCCC/C=C\C/C=C\CCCCCCCC(=O)NC(COC(=O)NCCN1CCCCC1)C(=O)OCCCCCC(=O)OCC(CCCCCCCC)CCCCCCCCCC (stereo not shown) [Lipid 728] | MCP-1 at 2 h | 421 |
| CCCCCCCC/C=C\CCCCCCCC(=O)NC(COC(=O)NCCN1CCCCC1)C(=O)OCCCCCCCCOC(=O)C(CCCCCC)CCCCCCCC (stereo not shown) [Lipid 700] | MCP-1 at 2 h | 281 |
| CCCCCCCC/C=C\CCCCCCCC(=O)NC(COC(=O)NCCN1CCCCCC1)C(=O)OCCCCCCCCOC(=O)C(CCCCCC)CCCCCCCC (stereo not shown) [Lipid 701] | MCP-1 at 2 h | 628 |

Next, consider the following compound.
Lookup: Please give measured MCP-1 at 2 h of the following entry: CCCCC/C=C\C/C=C\CCCCCCCC(=O)NC(COC(=O)NCCN1CCCCC1)C(=O)OCCCCCCCC(=O)OC(CCCCCCCC)CCCCCCCC (stereo not shown) [Lipid 549]
Found: 299

###

method notes: LNP size and polydispersity index (PDI) by dynamic light scattering (Zetasizer)
Type: physicochemical
condition set: Formulation No. 010, RNA No. 331
Procedure: The LNP size and polydispersity index (PDI), determined by dynamic light scattering (DLS), and zeta potential were measured by a Zetasizer machine (Malvern). RNA concentration and encapsulation efficacy (EE %) were analyzed by the Quant-IT Ribogreen kit by calculating the percentage encapsulation at 100%—(RNA-LNPs/RNA-LNPs with Triton X-100).
measured property: PDI
Lab note: jot the number down without any unit.

| compound | number |
| --- | --- |
| CCCCCCCC/C=C\CCCCCCCC(=O)NC(COC(=O)NCCN1CCCCC1)C(=O)OCCCCCCCCOC(=O)C(CCCCCC)CCCCCCCC (stereo not drawn) | 0.07 |
| CCCCC/C=C\C/C=C\CCCCCCCC(=O)N[C@H](COC(=O)NCCN1CCCCCC1)C(=O)OCCCCCC(=O)OC(CCCCCCCC)CCCCCCCC | 0.09 |
| CCCCC/C=C\C/C=C\CCCCCCCC(=O)NC(COC(=O)NCCN1CCCCC1)C(=O)OCCCCCCCC(=O)OC(CCCCCCCC)CCCCCCCC (stereo not drawn) | 0.13 |

Lookup: Return the recorded PDI value; entry: CCCCC/C=C\C/C=C\CCCCCCCC(=O)NC(COC(=O)NCCN1CCCCCC1)C(=O)OCCCCCCCC(=O)OC(CCCCCCCC)CCCCCCCC (stereo not drawn)
Found: 0.13

Lookup: Give the reported value of PDI for this record: CCCCC/C=C\C/C=C\CCCCCCCC(=O)N[C@@H](COC(=O)NCCN1CCCCCC1)C(=O)OCCCCCCCC(=O)OC(CCCCCCCC)CCCCCCCC
Found: 0.16

Lookup: Report measured PDI; entry is CCCCC/C=C\C/C=C\CCCCCCCC(=O)NC(COC(=O)NCCN1CCCCCC1)C(=O)OCCCCCC(=O)OCC(CCCCCCCC)CCCCCCCCCC (stereo not drawn)
Found: 0.10

Lookup: Complete the entry with PDI for CCCCC/C=C\C/C=C\CCCCCCCC(=O)NC(COC(=O)NCCN1CCCCC1)C(=O)OCCCCCC(=O)OCC(CCCCCCCC)CCCCCCCCCC (stereo not drawn)
Found: 0.09

Lookup: Tell me measured PDI for CCCCCCCC/C=C\CCCCCCCC(=O)NC(COC(=O)NCCN1CCCCCC1)C(=O)OCCCCCCCCOC(=O)C(CCCCCC)CCCCCCCC (stereo not drawn) please.
Found: 0.07

Lookup: Specify PDI for CCCCC/C=C\C/C=C\CCCCCCCC(=O)N[C@@H](COC(=O)NCCN1CCCCC1)C(=O)OCCCCCCCC(=O)OC(CCCCCCCC)CCCCCCCC and stop.
Found: 0.08

###

method notes: LNP size and polydispersity index (PDI) by dynamic light scattering (Zetasizer)
Format: physicochemical
condition set: Formulation No. 001 (Ionizable lipid:DSPC:cholesterol:DMG-PEG2000 = 50:10:38.5:1.5, N/P 6), RNA No. 331
Assign class by Size (nm): not lower than 70 nm means 1; lower than 70 nm means 0.

Completed entries (count: 3):
| molecule | category |
| --- | --- |
| CCCCCCCCCC(=O)OCCCCCCCOC(=O)C(COC(=O)NCCN(C)C)NC(=O)OCCCCCCCCOC(=O)C(CCCCCC)CCCCCCCC (stereo not shown) | 1 |
| CCCCCCCCCCCOC(=O)CCCCCOC(=O)C(COC(=O)NCCN1CCCCCC1)NC(=O)OCCCCCCCCOC(=O)C(CCCCCC)CCCCCCCC (stereo not shown) | 1 |
| CCCCC/C=C\C/C=C\CCCCCCCCOC(=O)NC(COC(=O)NCCN1CCCCCC1)C(=O)OCCCCCCCCCC(=O)OCCCCCCC (stereo not shown) | 1 |

Lookup: Assess whether reported Size (nm) for CCCCC/C=C\C/C=C\CCCCCCCCOC(=O)C(COC(=O)NCCN1CCCCCC1)NC(=O)OCCCCCCCCOC(=O)C(CCCCCC)CCCCCCCC (stereo not shown) sits at 70 nm or higher.
Found: 0

Lookup: Please tell me: is the molecule CCCCC/C=C\C/C=C\CCCCCCCCOC(=O)NC(COC(=O)NCCN1CCCCCC1)C(=O)OCCCCCCCOC(=O)CCCCCCCCC (stereo not shown) at or over 70 nm in terms of Size (nm)?
Found: 1

Lookup: Hi team, for CCCCCCCCC(CCCCCC)C(=O)OCCCCCCCCOC(=O)NC(COC(=O)NCCN1CCCCC1)C(=O)OCCCCCCCCOC(=O)C(CCCCCC)CCCCCCCC (stereo not shown) , is the recorded Size (nm) at or above 70 nm?
Found: 0

Lookup: Does the reported Size (nm) for CCCCC/C=C\CCOC(=O)CCCCCOC(=O)C(COC(=O)NCCN1CCCCCC1)NC(=O)OCCCCCCCCOC(=O)C(CCCCCC)CCCCCCCC (stereo not shown) fall at or above the 70 nm mark?
Found: 1

Lookup: Determine whether this molecule has Size (nm) no lower than 70 nm: CCCCCCCC/C=C\CCCCCCCCOC(=O)NC(COC(=O)NCCN1CCCCCC1)C(=O)OCCCCCC(=O)OCC(CCCCCCCC)CCCCCCCCCC (stereo not shown)
Found: 0
